- Test system: SNU-C1 (Colorectal Carcinoma)
- Procedure Text: combination Emax (second highest fraction inhibited in the dose matrix, 72 h); higher = more inhibition; extreme values may be limits of the assay
Value Kind: combination Emax

Compound	Measurement Target	Result
CS(=O)(=O)CCNCc1ccc(-c2ccc3ncnc(Nc4ccc(OCc5cccc(F)c5)c(Cl)c4)c3c2)o1 [Lapatinib] + NC1(c2ccc(-c3nc4ccn5c(=O)[nH]nc5c4cc3-c3ccccc3)cc2)CCC1 [MK-2206] (first compound max 10 µM, 7x7, partner max 10 µM)	SNU-C1 (Colorectal Carcinoma)	0.631
CN(CCO)CC[C@H](CSc1ccccc1)Nc1ccc(S(=O)(=O)NC(=O)c2ccc(N3CCC([C@@H](O)c4ccccc4-c4ccc(Cl)cc4)CC3)cc2)cc1S(=O)(=O)C(F)(F)F [AZD4320] + CS(=O)(=O)CCNCc1ccc(-c2ccc3ncnc(Nc4ccc(OCc5cccc(F)c5)c(Cl)c4)c3c2)o1 [Lapatinib] (first compound max 1 µM, 7x7, partner max 10 µM)	SNU-C1 (Colorectal Carcinoma)	0.666
N#Cc1cnc(Nc2cc(NC[C@H]3CNCCO3)c(C(F)(F)F)cn2)cn1 [SRA737] + C=CCn1c(=O)c2cnc(Nc3ccc(N4CCN(C)CC4)cc3)nc2n1-c1cccc(C(C)(C)O)n1 [AZD1775] (first compound max 10 µM, partner max 1 µM)	SNU-C1 (Colorectal Carcinoma)	0.789
